Value source: patent US20210206841A1

Task for the reader: assign each of the following binders its reported pKd.
ASSAY SYSTEM: T1, tail-chimeric peptide IhfA3-IhfB2NTHI (nontypeable Haemophilus influenzae …)
T1 construct: also called IHF(NTHI) tail chimeric peptide; IHFNTHI tail chimeric peptide
T1 peptide: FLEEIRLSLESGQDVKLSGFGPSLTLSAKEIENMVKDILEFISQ
TEST NAME: SPR Biacore 3000, HuMab immobilized, peptide as analyte
Would you please state pKd, meaning minus log10 of the concentration in mol/L, as a bare number?

Q. // returns reported pKd for input humanized anti-tail monoclonal antibody, heavy chain SEQ ID NO: 6 and light chain SEQ ID NO: 11 (antibody, V domains shown, also called H10215 (11E7.C7 Humanized HC3) + L10214 (11E7.C7 Humanized LC2)) VH: EVQLVESGGGLVQPGRSLRLSCTASGFTFSRYGMSWVRQAPGKGLEWVATISSGGSYTYYTDSVKGRFTISRDNAKNILYLQMNSLKTEDTAVYYCERHGGDGYWYFDVWGQGTMVTVSS VL: DIQMTQSPSSLSASVGDRVTITCRASQDISNYLNWYQQKPGKAVKLLIYYTSRLHSGVPSRFSGSGSGTDYTLTISSLQPEDFATYYCQQGNPLRTFGGGTKVEIKR
A. 7.17

Q. Dear colleague, I am looking for the recorded pKd of the following binder: humanized anti-tail monoclonal antibody, heavy chain SEQ ID NO: 5 and light chain SEQ ID NO: 12 (antibody, V domains shown, also called H10214 (11E7.C7 Humanized HC2) + L10215 (11E7.C7 Humanized LC3)) VH: EVQLVESGGGLVKPGGSLRLSCAASGFTFSRYGMSWVRQAPGKGLEWVSTISSGGSYTYYTDSVKGRFTISRDNAKNSLYLQMNSLRAEDTAVYYCERHGGDGYWYFDVWGQGTMVTVSS VL: DIVMTQSPATLSLSPGERATLSCRASQDISNYLNWYQQKPGQAVRLLIYYTSRLHSGIPARFSGSGSGTDYTLTISSLEPEDFAVYFCQQGNPLRTFGGGTKVEIKR
A. 7.64

Q. Consider the binder shown here: humanized anti-tail monoclonal antibody, heavy chain SEQ ID NO: 6 and light chain SEQ ID NO: 10 (antibody, V domains shown, also called H10215 (11E7.C7 Humanized HC3) + L10213 (11E7.C7 Humanized LC1)) VH: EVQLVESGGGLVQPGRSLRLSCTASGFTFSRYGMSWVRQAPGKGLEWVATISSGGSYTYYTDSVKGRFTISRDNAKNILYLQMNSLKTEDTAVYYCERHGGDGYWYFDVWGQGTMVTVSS VL: DIQMTQSPSSLSASVGDRVTITCRASQDISNYLNWYQQKPGKAVKLLIYYTSRLHSGVPSRFSGSGSGTDYTLTISSLQPEDFATYFCQQGNPLRTFGGGTKVEIKR What is its recorded pKd?
A. 7.14

Q. Look at this binder and give its reported pKd. humanized anti-tail monoclonal antibody, heavy chain SEQ ID NO: 5 and light chain SEQ ID NO: 11 (antibody, V domains shown, also called H10214 (11E7.C7 Humanized HC2) + L10214 (11E7.C7 Humanized LC2)) VH: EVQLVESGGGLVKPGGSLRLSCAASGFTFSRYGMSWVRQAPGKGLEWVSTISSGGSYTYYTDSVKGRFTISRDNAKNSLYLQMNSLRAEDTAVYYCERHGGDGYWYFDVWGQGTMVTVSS VL: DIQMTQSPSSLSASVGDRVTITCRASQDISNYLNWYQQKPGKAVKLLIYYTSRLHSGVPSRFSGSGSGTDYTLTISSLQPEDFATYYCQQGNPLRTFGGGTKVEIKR
A. 7.33
